Reference source for all entries: patent US20250042994A1

Molecular target: T1, Human CD19-his protein (human, UniProt P15391 20-291)
T1 construct: bought protein; also called human CD19 protein; recombinant human CD19-His; not shown: His tag
T1 sequence (looked up): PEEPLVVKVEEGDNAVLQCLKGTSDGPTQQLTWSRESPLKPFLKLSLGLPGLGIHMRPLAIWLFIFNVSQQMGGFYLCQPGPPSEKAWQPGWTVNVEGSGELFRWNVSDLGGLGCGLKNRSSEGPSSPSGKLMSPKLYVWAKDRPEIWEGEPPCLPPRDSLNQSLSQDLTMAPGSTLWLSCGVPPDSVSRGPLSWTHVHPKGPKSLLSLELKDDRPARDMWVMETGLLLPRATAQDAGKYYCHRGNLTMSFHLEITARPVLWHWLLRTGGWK
Experiment: ELISA on coated human CD19-His
Recorded measurements of EC50 (read off the curve), one per entry
endpoint label: EC50 (read off the curve)

1) F4.21.2 (antibody, human IgG1, V domains shown, human-murine chimeric antibody, human IgG1) VH: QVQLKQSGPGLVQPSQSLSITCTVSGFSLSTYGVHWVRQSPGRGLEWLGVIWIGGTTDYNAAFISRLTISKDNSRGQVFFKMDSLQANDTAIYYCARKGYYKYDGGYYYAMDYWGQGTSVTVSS VL: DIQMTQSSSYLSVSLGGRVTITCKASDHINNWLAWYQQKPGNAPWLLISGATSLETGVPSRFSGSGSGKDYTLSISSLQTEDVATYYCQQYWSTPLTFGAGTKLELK	~0.07 nM
2) F5.7.1 (antibody, human IgG1, V domains shown, human-murine chimeric antibody, human IgG1) VH: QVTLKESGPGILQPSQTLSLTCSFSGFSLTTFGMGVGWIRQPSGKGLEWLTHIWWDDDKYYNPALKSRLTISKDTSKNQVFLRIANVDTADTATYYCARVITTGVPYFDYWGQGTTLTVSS VL: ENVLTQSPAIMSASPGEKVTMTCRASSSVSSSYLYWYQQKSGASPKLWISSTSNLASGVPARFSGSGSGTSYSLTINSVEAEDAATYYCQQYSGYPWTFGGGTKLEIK	~0.07 nM
3) F5.10.6 (antibody, human IgG1, V domains shown, human-murine chimeric antibody, human IgG1) VH: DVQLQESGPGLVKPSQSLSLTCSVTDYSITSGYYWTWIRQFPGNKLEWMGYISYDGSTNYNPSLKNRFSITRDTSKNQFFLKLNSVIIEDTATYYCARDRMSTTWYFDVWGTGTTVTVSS VL: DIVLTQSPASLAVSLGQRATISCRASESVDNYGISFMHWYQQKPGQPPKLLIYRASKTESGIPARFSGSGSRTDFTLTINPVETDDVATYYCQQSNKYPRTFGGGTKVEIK	~0.2 nM
